# Tested on: XBP1(u)-luciferase splicing reporter in HepG2 hepatoma cells
# measurement-notes: HepG2 XBP1 reporter assay (XBP1(u)-Luc)
# Format: cell-based
# study-conditions: Homo sapiens, 6 h, six hours after addition of compound
pIC50: −log10 of the molar value.
// reported pIC50 per item

Exam item: Reported pIC50 for Cc1cc(N2CCCOCC2c2cc(O)c(OC(F)(F)F)cc2Cl)nc(N)n1 (stereo not drawn) : what is it?
Marked response: > 6.22

Exam item: Reported pIC50, molecule Cc1cc(N2CCCOC[C@H]2c2cc(O)c(OC(F)(F)F)cc2Cl)nc(N)n1 : ____
Marked response: ≤ 5.30
